Can you tell me Susceptibility to hDcp2 (@30 min) for the items I'm about to list?
tgt: Human Dcp2 (Homo sapiens)
Construct: made in house; host or cells: E. coli
method.description: RNA decapping assay with recombinant hDcp2
Format: biochemical
conditions.used: fraction of decapped RNA after 30 min of incubation with hDcp2, 27-nt RNA capped with the analog, 37 °C; triplicates ± SD
Numbers only.

INSERT INTO results (compound, metric, data_value) VALUES
  ('C[n+]1cn([C@@H]2O[C@H](COP(=O)(O)O[P@](=O)([S-])OP(=O)(O)OC[C@H]3O[C@@H](n4cnc5c(N)ncnc54)[C@H](O)[C@@H]3OP(=O)(O)OC[C@H]3O[C@@H](n4cnc5c(=O)[nH]c(N)nc54)[C@H](O)[C@@H]3O)[C@@H](O)[C@H]2O)c2nc(N)nc(O)c21 [Compound 2, m^7GppSpApG]', 'Susceptibility to hDcp2 (@30 min)', 0.31);

Now for the compound whose Susceptibility to hDcp2 (@30 min) we want.
[Q] Given CNc1ncnc2c1ncn2[C@@H]1O[C@H](COP(=O)(O)O[P@@](=O)([S-])OP(=O)(O)OC[C@H]2O[C@@H](n3c[n+](C)c4c(O)nc(N)nc43)[C@H](O)[C@@H]2O)[C@@H](OP(=O)(O)OC[C@H]2O[C@@H](n3cnc4c(=O)[nH]c(N)nc43)[C@H](O)[C@@H]2O)[C@H]1OC [Compound 6, m^7GppSp^m6AmpG] , respond with its Susceptibility to hDcp2 (@30 min).
[A] 0.15

Sourced from paper PMC11472058
